The origin of these recorded values is patent US20090253712A1.

# Assay Text: Solubility tests of active agent in solvent systems
# Assay type: physicochemical
# Condition Label: 0.1% polysorbate 80 + 25% ethanol + ammonium acetate pH 3.1, pH 3.1, aqueous with cosolvent or surfactant or cyclodextrin, thermodynamic from solid, Table 3: 0.1% polysorbate 80 + 25% ethanol + ammonium acetate pH 3.1; read-out: Solubilized miconazole ± S.D.
Value Kind: solubility (mg/mL)
Please give a number only; it is taken to be in mg/mL.

Task: Answer with reported solubility of Clc1ccc(COC(Cn2ccnc2)c2ccc(Cl)cc2Cl)c(Cl)c1 (stereo not shown)
Output: 36

----------
# Assay Text: Solubility tests of active agent in solvent systems
# Assay type: physicochemical
# Condition Label: 3% polysorbate 80 in water, aqueous with cosolvent or surfactant or cyclodextrin, thermodynamic from solid, 3% polysorbate 80 in water; read-out: Solubilized miconazole ± S.D.
Value Kind: solubility (µg/mL)
Return type: number; implicit unit µg/mL.

Task: Tell me measured solubility for Clc1ccc(COC(Cn2ccnc2)c2ccc(Cl)cc2Cl)c(Cl)c1 (stereo not shown) please.
Output: 1520
